study system: human GPR40 (Homo sapiens, UniProt O14842)
Sequence (O14842 whole entry): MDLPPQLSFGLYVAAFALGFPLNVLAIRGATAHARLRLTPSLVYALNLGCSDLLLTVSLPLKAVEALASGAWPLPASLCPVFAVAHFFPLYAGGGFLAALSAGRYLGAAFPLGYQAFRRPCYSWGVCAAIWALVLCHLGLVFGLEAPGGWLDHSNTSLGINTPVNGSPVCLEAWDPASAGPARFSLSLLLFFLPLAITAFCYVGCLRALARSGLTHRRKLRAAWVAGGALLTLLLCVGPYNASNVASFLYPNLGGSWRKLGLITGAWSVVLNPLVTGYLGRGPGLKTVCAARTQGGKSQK
assay explanation: Induction of Ca2+ (calcium flux assay) using human GPR40 expression cell line
experimental setup: read-out: EC0.5
Give EC50 for every item shown.

Previously resolved entries follow.
In [3]: df
Out[3]:
                                   compound  recorded_value
0  CC#C[C@@H](CC(=O)O)c1ccc(OCc2ccc3ccn(Cc4ccc(C(F)(F)F)cc4)c3c2C)cc1           70 nM
1  CC#C[C@@H](CC(=O)O)c1ccc(OCc2cc3cnn(CC(C)C)c3cc2C)cc1      1 to 50 nM
2  CC#C[C@@H](CC(=O)O)c1ccc(OCc2ccc3cnn(Cc4cccnc4)c3c2C)cc1            9 nM

State recorded EC50 for all listed compounds.
1. O=C(O)CCc1ccc(OCc2ccc3cnn(Cc4ccccc4)c3c2)cc1F
2. CC#C[C@@H](CC(=O)O)c1ccc(OCc2ccc3ccn(Cc4ccc(C)nc4)c3c2C)cc1
3. CC(C)CCn1ncc2cc(COc3ccc4c(c3)OCCC4CC(=O)O)ccc21 (centres unmarked)
4. CC#C[C@@H](CC(=O)O)c1ccc(OCc2cccc3nn(Cc4cnc(C)cn4)cc23)cc1
5. Cc1c(COc2ccc([C@H](CC(=O)O)c3ccon3)cc2)ccc2ccn(Cc3cnccn3)c12

// result
1 to 50 nM
1 to 50 nM
50 to 500 nM
50 to 500 nM
30 nM

---

study system: human GPR40 (Homo sapiens, UniProt O14842)
assay explanation: Induction of Ca2+ (calcium flux assay) using human GPR40 expression cell line
experimental setup: read-out: EC0.5
Give EC50 for every item shown.
Give bare numbers, in nM.

Previously resolved entries follow.
>>> df
                                   compound  unit_info  recorded_value
0  CC#C[C@@H](CC(=O)O)c1ccc(OCc2ccc3ccn(Cc4c(F)cccc4F)c3c2C)cc1         nM              20
1  CC#C[C@@H](CC(=O)O)c1ccc(OCc2ccc3c(CN4CCOCC4)nn(CC(C)C)c3c2Cl)cc1         nM               6
2  O=C(O)CC1COc2cc(OCc3ccc4cn(Cc5ccccc5)nc4c3)ccc21 (stereo not drawn)         nM            9100
3  O=C(O)CCc1ccc(OCc2ccc3ccn(Cc4ccccc4)c3c2Cl)cc1         nM              90
4  Cc1c(COc2ccc(CCC(=O)O)cc2)ccc2ccn(-c3ccc(F)cc3)c12         nM              30

State recorded EC50 for all listed compounds.
1. CC#C[C@@H](CC(=O)O)c1ccc(OCc2ccc3c(COC)nn(CC(C)C)c3c2)cc1
2. Cc1cc(F)ccc1-n1cc(Cl)c2ccc(COc3ccc(CCC(=O)O)cc3)cc21
3. CC#C[C@@H](CC(=O)O)c1ccc(OCc2ccc3ccn(-c4ccc(F)cc4C)c3c2)cc1
4. CC#C[C@@H](CC(=O)O)c1ccc(OCc2ccc3cc(CCOC)n(Cc4ccccc4)c3c2)cc1
5. O=C(O)CC1COc2cc(OCc3ccc4cnn(Cc5ccccc5)c4c3)ccc21 (stereo not drawn)

// result
5
40
20
40
400

State recorded EC50 for all listed compounds.
1. O=C(O)C[C@@H](c1ccc(OCc2ccc3ccn(Cc4ccccc4)c3n2)cc1)c1ccon1
2. O=C(O)CC1CCOc2cc(OCc3ccc4c(cnn4Cc4ccccc4)c3)ccc21 (stereo not drawn)
3. CC#C[C@@H](CC(=O)O)c1ccc(OCc2cccc3c2c(F)nn3CC2CC2)cc1
4. CC#C[C@@H](CC(=O)O)c1ccc(OCc2cnc3c(cnn3CC(C)C)c2)cc1
5. O=C(O)CCc1ccc(NCc2ccc3ccn(-c4ccc(F)cc4)c3c2)cc1
6. CC#C[C@@H](CC(=O)O)c1ccc(OCc2ccc3c(F)nn(CC)c3c2C)cc1
7. CC#C[C@@H](CC(=O)O)c1ccc(OCc2ccc3cnn(C(C)C)c3c2C)cc1

// result
[30, 40, 9, 20, 700, 2, 3]

So the reported EC50 for CC#C[C@@H](CC(=O)O)c1ccc(OCc2ccc3ccn(Cc4ccc(S(C)(=O)=O)cc4)c3c2C)cc1 , on human GPR40 (Homo sapiens, UniProt O14842), turned out to be 30
